# System: HCT 116 cell line
# ASSAY PROCEDURE: Cell inhibition assay (WST-1 cell proliferation, 120 hrs)
# Assay type: cell-based
# ASSAY CONDITIONS: Homo sapiens, HCT-116, 120 hrs, read-out: Inhibitor Activity vs HCT 116 cell line
pIC50: −log10 of the molar value.
Please go through the items and note down their pIC50.

Nc1ncnc2c1nc(Sc1cc3c(cc1I)OCO3)n2CCC[C@@H](N)C(=O)OC1CCCC1 [Example 3] ... > 6.00
Nc1ncnc2c1nc(Sc1cc3c(cc1I)OCO3)n2CC[C@@H](N)C(=O)OC1CCCC1 [Example 4] ... > 6.00
CC(C)(C)OC(=O)[C@@H](N)CCCn1c(Sc2cc3c(cc2I)OCO3)nc2c(N)ncnc21 [Example 5] ... 5.00 to 6.00
Nc1ncnc2c1nc(Sc1cc3c(cc1I)OCO3)n2CCC[C@H](N)C(=O)OC1CCCC1 [Example 1] ... > 6.00

# context switch: different molecule, same pIC50
Query: // returns reported pIC50 for input Nc1ncnc2c1nc(Sc1cc3c(cc1I)OCO3)n2CC[C@H](N)C(=O)OC1CCCC1 [Example 2]
Reply: > 6.00
